Field: IC50. Provide a value for each of the compounds that follow.
Tested on: Panc-1
assay notes: MTT assay, growth inhibition of human tumor cells
Assay type: cell-based
test parameters: Homo sapiens, 96 h; MTT assay, Panc-1 cells, 4 days treatment; several values = separate determinations
Give bare numbers, in µM.

compound	measure unit	IC50
NC(=O)NO [hydroxyurea, reference compound]	µM	1.3

Attention now turns to another entry.
Sample O=c1[nH]cc(F)c(=O)[nH]1 [5-FU, 5-fluorouracil, reference compound] ; IC50 observed: 5
